Where these numbers come from: the NTF2 design screens of Basanta et al. (2020)

# PROTOCOL TEXT: protease stability score; higher = more stable; yeast display proteolysis, trypsin and chymotrypsin;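 note: relative to predicted unfolded state with 0 unfolded-like and 1 meaning tenfold more protease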
Recorded measurements of protease stability score, one per entry
PARAMETER MEASURED: protease stability score

{"MACROMOLECULE SEQUENCE": "DEEHKIIRDFADEFWHWHLTGNFEEIAKNMDPNVRYEIRIGDKVILHIGMEDVERYLREEIHKFKNLTEDLESKHVVGNKLHLDARLNWNGKTVDIHIEIVVVNGRFKTVTIHIR", "OBSERVED RESULT": 1.36}
{"MACROMOLECULE SEQUENCE": "SERHELVVRIVRLWIRMIRTGNEELYMRLADPHVKLDVNGREMHGRERSTEMWSELRIRHLHTEHIEVAENRFVVHGRLVTEFNGKEHDVKVVIHVEIVDGRIKEEEYHIL", "OBSERVED RESULT": 1.29}
{"MACROMOLECULE SEQUENCE": "SEETEHIQKVMKDYIELVLTGDEEKWIHLADPHTRLILLFDGKEIHTHGWDRLIKVWQRIMEELGVDKVEIRMERVRSYGDKAESDVESRYNGRTHETEVTILVIDGRIKMVEVRFH", "OBSERVED RESULT": 1.14}
{"MACROMOLECULE SEQUENCE": "SERHEESHERTRLLMHAHETGDFHTLQRLMDPDTRLLIIFNGREIHIHGMESAFKFFNEIRISHVTIHRVDIQGDKVNVDGEQEGQINGQRSRNRIHWDIDVIDGKIKRIIVEIR", "OBSERVED RESULT": 0.993}
{"MACROMOLECULE SEQUENCE": "TDDEREAVRFSEEVMHSFITGDEEHLDRLMDPNTKLTVNGKEIHGRQDVLEFIKRYRRELGVKYSEFVVHSVDDFDGRLRNNTELNINVDGKHIRLDTRVDMIKFNGRWQLHSIRFD", "OBSERVED RESULT": 1.44}
{"MACROMOLECULE SEQUENCE": "DEEDHDLELFLQIMTHDMRTGNEDNLTRLLDPHVRLEWNGKEFHGRDVMRFWREELGHDNVEVHMRLKDRELQGDKLIIHGEIIHRYNGREIRLDIHFIAHKVDGKWIARVRNIQ", "OBSERVED RESULT": 1.64}
{"MACROMOLECULE SEQUENCE": "SERHDHAEHVLRLWEHFWKTGDETNLSRLLDPSVRWVIGDKVYHGMETVSHNLSRHYLRADHVEESVHRLNFQGNKVEMDGRIILNVNGVQIDKRSHIELISFNGKIKELDLHIT", "OBSERVED RESULT": 0.371}
{"MACROMOLECULE SEQUENCE": "SEEEEESRRFMQHMSRSLATGDWRQVRNLLDPHVRTDINGRDLHGWRDYVRHVLELGIKHIHIEDIRLVGDYAHIDGEMDVNGRDVRVHILVLKINGRWVIESEELK", "OBSERVED RESULT": 0.427}
{"MACROMOLECULE SEQUENCE": "SEEEEVMERFVELLIKLLITGDEEVLEHLMDPNVRIQIGDKVYHGREVARDLWRRYHRHWRIHDTEVKHHHVQGEFIEIHISIDGEIDGRREEERIIFFVVKINGRWLLHDIHFN", "OBSERVED RESULT": 2.51}
{"MACROMOLECULE SEQUENCE": "DHHRKETEELAELFFENLLTGNWEIHEHLLDPDVKLEQGDKINVGRESYSEWLEYVKKHIRIRDWKIRHVHVFNGRVHLETEVHMEYGDKHHVVDMHISIDVINGRFKTVRIEIK", "OBSERVED RESULT": 2.1}
{"MACROMOLECULE SEQUENCE": "SDDHHKAKLFNEWFKQHFDTGDEHLYKRLADPNVRIHINGVDIVGRELATHLLSHIRITHFEVHDHKVQGNKVHTDGRVHGDVNGVEERVYVELVIEKIDGRWLNHQEIWV", "OBSERVED RESULT": 0.332}
{"MACROMOLECULE SEQUENCE": "TEEERDSKLAFQLLFKTLETGDEREHREFIDPNMRLHVGNYEFIGWERAVHIMRRIDHVQRIEIEDTYTIGNKVTIDGTDYIEVGDFTERIRSRWIILKVDGKWFIHHVELR", "OBSERVED RESULT": 0.679}
{"MACROMOLECULE SEQUENCE": "SEDEEYVEHMIRLVIRSLWTGDEHLLHRLIDPHARAEVNGQEFHGREEVLDILMRIRDELGVDHIELKDFELQGDKLILYSQNNVGDKHFHIIYELTKINGRWRIHRVFIELR", "OBSERVED RESULT": 1.7}
{"MACROMOLECULE SEQUENCE": "DEREHDLRRAVHIHRELMMTGDESNFLSYADPNTRLEVDGQEVVGREEVFKWITNVLSRHGVELKDIRVKTMDHQGNKLILHVEIRTRIGEKDTSVDFTLVVEKVNGRWVLHSLEIH", "OBSERVED RESULT": 0.16}
{"MACROMOLECULE SEQUENCE": "SEDRENIYRQIREVEEALKTGDEELMLHLMDPHVRIDINGRHNHGREEMVRFIREIRISLKHVDIHHVQDDENELIVHVRVNLVIEVDGKRREEEDNALFIFVKIDGRWVFSIIRIQ", "OBSERVED RESULT": 1.76}
